# TARGET UNDER TEST: acetylcholine receptor
# ASSAY COMMENT: SPR, AchR immobilized on CM5 chip, peptide at 10 uM
EXPERIMENTAL ENDPOINT: Binding affinity (RU)

BINDER	Binding affinity (RU)
RSVQKR [6mer-2-338]	145
RQILKR [6mer-2-392]	149
KIDNK [5mer-1024]	26

A: KTHMK [5mer-1036]
B: REPMK [5mer-748]
Endpoint returns the identifier whose Binding affinity (RU) is numerically larger, either A or B . Selection: enter the item's label. A
